B1: WDFY2 (parent)
chain: FWNFKQMWDSKKIGLRQHHCRKCG

Variants of: B1
method_notes: protein stability index of a GFP-peptide fusion (GPS, HEK-293T) (PSI 1-6); higher = more stable;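 further: lentivirally expressed fusions sorted by FACS into six bins by GFP to DsRed ratio, PSI derived from sequencing read proportions per bin multiplied by bin number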
stated_conditions: c terminus: a fixed tail appended
Label True when protein stability index is at or above 2; anything below gets False.

>>> print(df.to_string())
   alteration    cat
0         Q6W  False
1         Q6I  False
2        S10L  False
3         D9C  False
4        K12I   True
5        L15K   True
6         M7P   True
7         F4Q   True
8        H18I  False
9         K5H  False

Alright, here's another variant for you.
stdin: Entry Q17H : is its protein stability index no less than 2?
stdout: True

The measured values listed here are drawn from the supplement of paper PMC10567573.
